Let's look at some substances and their measured Inhibition of Factor XI protein relative to the PBS control.
# Test system: Factor XI protein
# ASSAY_PROCEDURE: Cynomolgus monkeys: plasma Factor XI protein ELISA (Example 30)
# Format: in vivo
# TEST_CONDITIONS: 25 mg/kg s.c.; plasma ELISA; Day −14
In the oligonucleotide strings, read from the 5' end, every base follows the letter of its sugar. An asterisk marks phosphorothioate; unmarked linkages are phosphodiester. Other units and linkages are bracketed, terminal groups are in braces. A string of capitals states the bases alone. e = 2'-O-(2-methoxyethyl) (MOE); [5mC] = 5-methylcytosine; d = 2'-deoxy (DNA)

// worked examples, Inhibition of Factor XI protein relative to the PBS control included
Ask: Missing value: Inhibition of Factor XI protein relative to the PBS control, Factor XI protein, entry 449711 (antisense eA*e[5mC]*dA*dG*dT*dT*dT*d[5mC]*dT*dG*dG*d[5mC]*eA*eG) [compound 449711] . Fill in?
Result: 0%

Ask: 449709 (antisense eG*e[5mC]*eA*e[5mC]*dA*dG*dT*dT*dT*d[5mC]*dT*dG*dG*d[5mC]*eA*eG*eG*e[5mC]) [compound 449709] , same question.
Result: 1%

Okay, now this substance:
Ask: So what Inhibition of Factor XI protein relative to the PBS control did 416858 (antisense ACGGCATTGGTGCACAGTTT; 5-10-5 gapmer, wing sugar chemistry not given here, further chemistry not given here) [compound 416858] get with Factor XI protein?
Result: 4%

====

# ASSAY_PROCEDURE: Tolerability in CD1 mice: hematology assays (Example 21)
# Assay type: in vivo
# TEST_CONDITIONS: 50 mg/kg s.c. twice per week for 6 weeks
PROPERTY_LABEL: Lymphocyte (cells/μL)
Give the quantity in cells/μL, number only.

Below, each entry is followed by its recorded Lymphocyte result.
Ask: Lymphocyte for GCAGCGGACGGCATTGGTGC (antisense; all C 5-methyl, all phosphorothioate, sugars by position not given here; MOE gapmer, 5-10-5) [ISIS 412225, 5-10-5 MOE gapmer] ?
Result: 4969

Ask: Lookup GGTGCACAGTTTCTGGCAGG (all C 5-methyl, all phosphorothioate, sugars by position not given here; MOE gapmer) [ISIS 413481, 5-10-5 MOE gapmer]
Result: 4329

Ask: Now try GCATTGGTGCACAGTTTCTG (antisense; all C 5-methyl, all phosphorothioate, sugars by position not given here; MOE gapmer, 5-10-5) [ISIS 412224, 5-10-5 MOE gapmer] .
Result: 6284

Ask: Also need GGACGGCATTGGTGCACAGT (antisense; all C 5-methyl, all phosphorothioate, sugars by position not given here; MOE gapmer, 5-10-5) [ISIS 413482, 5-10-5 MOE gapmer] , thanks.
Result: 5584

Now let's try a different one.
Ask: Would you mind telling me what Lymphocyte value was observed for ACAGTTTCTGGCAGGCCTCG (antisense; all C 5-methyl, all phosphorothioate, sugars by position not given here; MOE gapmer, 5-10-5) [ISIS 412223, 5-10-5 MOE gapmer] ?
Result: 4599

====

# ASSAY_PROCEDURE: Cynomolgus monkeys: body and organ weights (Example 29)
# Format: in vivo
# TEST_CONDITIONS: escalating doses 5, 10, 25 mg/kg s.c., day 29
In the oligonucleotide strings, read from the 5' end, every base follows the letter of its sugar. An asterisk marks phosphorothioate; unmarked linkages are phosphodiester. Other units and linkages are bracketed, terminal groups are in braces. A string of capitals states the bases alone. e = 2'-O-(2-methoxyethyl) (MOE); [5mC] = 5-methylcytosine; d = 2'-deoxy (DNA)
PROPERTY_LABEL: Body weight
Reply with the number and its unit after it.

Ask: For ISIS 417002: gapmer of Table 8 (antisense eG*eG*dT*dG*d[5mC]*dA*d[5mC]*dA*dG*dT*dT*dT*d[5mC]*dT*dG*eG*e[5mC]*eA*eG*eG) , what is its reported Body weight?
Result: 2622 g

Ask: And ISIS 416850: gapmer of Table 8 (antisense eT*eG*e[5mC]*eA*e[5mC]*dA*dG*dT*dT*dT*d[5mC]*dT*dG*dG*d[5mC]*eA*eG*eG*e[5mC]*e[5mC]) ?
Result: 2515 g

Ask: Now the same for ISIS 416838: gapmer of Table 6 (antisense eG*e[5mC]*eA*eA*e[5mC]*d[5mC]*dG*dG*dG*dA*dT*dG*dA*dT*dG*eA*eG*eT*eG*e[5mC])
Result: 2689 g

Ask: Moving on to ISIS 416858: gapmer of Table 8 (antisense eA*e[5mC]*eG*eG*e[5mC]*dA*dT*dT*dG*dG*dT*dG*d[5mC]*dA*d[5mC]*eA*eG*eT*eT*eT)
Result: 2763 g

Attention now shifts to the item below.
Ask: # query: Body weight of entry ISIS 416864: gapmer of Table 8 (antisense eG*eG*e[5mC]*eA*eG*d[5mC]*dG*dG*dA*d[5mC]*dG*dG*d[5mC]*dA*dT*eT*eG*eG*eT*eG)
Result: 2863 g

Source listed as patent US20120083522A1.
